Measured values drawn from the Human Domainome abundance scans (Beltran et al. 2025) for this set.

Each record here notes measured abundance fitness.
B1: POU domain, class 3, transcription factor 3, residues 320 to 388; numbered along this chain, P20264 (parent)
chain: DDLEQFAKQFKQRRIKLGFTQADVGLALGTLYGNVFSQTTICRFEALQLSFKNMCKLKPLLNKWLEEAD

Variants of: B1
Experiment: abundance fitness (aPCA) (normalised: wild type 0, dead -1); higher = more abundant; growth selection in yeast, the domain comes from the species named
Conditions: Homo sapiens
Enter a number only.

Reference set (5 entries):
Measured abundance fitness, G33L : -0.922

Measured abundance fitness, G29Y : -0.108

Measured abundance fitness, T30H : -0.232

Measured abundance fitness, S37Q : -0.386

Measured abundance fitness, D23S : -0.743

More entries:
Measured abundance fitness, G29A : 0.056

Measured abundance fitness, Y32S : 0.108

Measured abundance fitness, V24F : 0.197

Measured abundance fitness, N34Q : -0.172

Measured abundance fitness, R43C : -0.447

Measured abundance fitness, N34K : 0.081
